src = patent US20060264460A1

Molecular target: human Cot/Tpl2 kinase (Homo sapiens, UniProt P41279)
Construct: human Cot/Tpl2 kinase construct encoding residues 30-398; 6His (N); made in house; host or cells: Sf9 insect cells, baculovirus system (BD Biosciences)
Sequence (P41279 30-398): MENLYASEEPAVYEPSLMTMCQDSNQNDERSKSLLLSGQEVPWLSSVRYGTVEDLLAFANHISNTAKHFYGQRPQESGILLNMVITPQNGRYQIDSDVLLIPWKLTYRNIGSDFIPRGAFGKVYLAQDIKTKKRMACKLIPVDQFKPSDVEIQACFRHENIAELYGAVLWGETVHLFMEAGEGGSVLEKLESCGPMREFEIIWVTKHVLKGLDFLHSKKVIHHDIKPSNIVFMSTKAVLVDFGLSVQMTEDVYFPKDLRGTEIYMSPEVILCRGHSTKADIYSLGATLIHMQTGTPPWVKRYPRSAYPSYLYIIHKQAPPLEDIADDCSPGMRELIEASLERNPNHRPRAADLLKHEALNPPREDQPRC
Test: Tpl2/Cot kinase assay: GST-MEK1 phosphorylation detected by ELISA (DELFIA Eu)
Format: biochemical
Details: Tpl2/Cot kinase, GST-MEK1 substrate, 50 uM ATP
pIC50: −log10 of the molar value.
This section presents compounds with their documented pIC50 values.

Example entries and their recorded answers appear below.
# record-smiles, target-desc, pIC50
rows = [
    ("CC(C)(C)OC(=O)N1CCC(Nc2ccc3ncc(C#N)c(Nc4ccc(F)c(Cl)c4)c3c2)CC1", "human Cot/Tpl2 kinase (Homo sapiens, UniProt P41279)", "< 4.40"),
    ("N#Cc1cnc2c(Cl)cc(NCCNS(=O)(=O)c3cccnc3)cc2c1Nc1ccc(F)c(Cl)c1", "human Cot/Tpl2 kinase (Homo sapiens, UniProt P41279)", "< 5.52"),
    ("N#Cc1cnc2c(Cl)cc(NCCNC(=O)Cc3cccnc3)cc2c1Nc1ccc(F)c(Cl)c1", "human Cot/Tpl2 kinase (Homo sapiens, UniProt P41279)", "< 5.52"),
    ("CCN(C[C@@H]1CCCN1C(C)=O)c1cc(Cl)c2ncc(C#N)c(Nc3ccc(F)c(Cl)c3)c2c1", "human Cot/Tpl2 kinase (Homo sapiens, UniProt P41279)", "< 5.52"),
]

--- query ---
What the record says about `COC(=O)c1cc(Cl)c2ncc(C#N)c(Nc3ccc(F)c(Cl)c3)c2c1` : pIC50 is < 5.52
